# Test system: HOP-62
# protocol description: NCI tumour cell line growth inhibition, 48 h
Active and inactive are the calls of the source. Rule as the data show it: active = GI50 up to about 1.1 µM and inactive = higher.
readout: GI50

compound: C#CCOC(=O)C(N)CS (stereo unspecified)
val: > 100 µM (inactive)

compound: CCSC1=N/C(=C/c2ccccc2O)C(=O)N1
val: 41.1 µM (inactive)

compound: CC(=O)CC(=O)NC=O
val: > 100 µM (inactive)

compound: OCC(O)C(OC1OC(CO)C(O)C(O)C1O)c1nn(-c2ccc(Cl)cc2)c2nc3cc(Cl)ccc3nc12 (stereo unspecified)
val: > 100 µM (inactive)

compound: C=C(CN(C)C)C(=O)c1ccccc1OC
val: > 52.8 µM (inactive)

Let us examine a further case.
Request: For the compound CC(C)(C)Sc1nnc(SC(C)(C)C)c2c(SC(C)(C)C)nnc(O)c12 , give its reported GI50.
Response: 13.9 µM (inactive)

----------
# Test system: SF-295
# protocol description: NCI tumour cell line growth inhibition, 48 h
Activity calls are given as the source filed them. Rule as the data show it: active = GI50 up to about 1.1 µM and inactive = higher.
readout: GI50

Sample answers from the record:
compound: O=c1[nH]c(=S)[nH]n1C(=S)n1[nH]c(=S)[nH]c1=O
GI50: > 100 µM (inactive)

compound: O=[N+]([O-])c1ccc(-c2cn(-c3ccc(Cl)cc3)cn2)cc1
GI50: 18.7 µM (inactive)

compound: CC(C)N(C(=O)C12C3C4C1C1C2C3C41C(=O)N(C(C)C)C(C)C)C(C)C (centres undefined)
GI50: > 50 µM (inactive)

compound: CCOC(=O)C1=NNC(C(=O)c2ccccc2)C1c1ccccc1 (centres undefined)
GI50: 16.9 µM (inactive)

compound: CC(C)/C(Cl)=N\OC(=O)Nc1cccc(Cl)c1
GI50: 36.1 µM (inactive)

Return reported GI50 values for all items listed beneath this line.
1. COc1ccc(/N=c2/oc3ccccc3cc2C(N)=O)cc1
2. Cc1cc2c3c(ccc4[nH]cc(c43)CN2c2ccc(NS(C)(=O)=O)cc2)n1

Response:
26.3 µM (inactive)
51.9 µM (inactive)

Batch lookup, GI50 per entry.
1. COc1cc2c(c(OC)c1)[C@H](C)N(Cc1ccccc1)C(C)C2 (some centres undefined)
2. CCC1(O)C(=O)OCc2c1cc1n(c2=O)Cc2cc3ccc(CO)cc3nc2-1 (centres undefined)
3. c1ccc2c(C3CCN(CCN4CCOCC4)C3)c[nH]c2c1 (centres undefined)

Response:
["16.3 µM (inactive)", "3.18 µM (inactive)", "> 100 µM (inactive)"]

Quick request: GI50 for each listed item, please.
1. Cc1cc(C)c2c(c1)CN1CN2Cc2cc(C)cc(C)c21
2. Cc1cc(NN)nc2[nH]nc(N)c12
3. O=C(/C=C\c1ccccc1-c1ccccc1)c1ccccc1
4. CC12C(=O)N(CCN)C(=O)C1C1c3ccccc3C2c2ccccc21 (centres undefined)
5. Cc1cc(C)c(O)c(Cc2cccc(Cc3cc(C)cc(C)c3O)c2O)c1
6. COc1ccc2c(c1)CCCN1CCc3ccccc3C21 (centres undefined)

Response:
["18.7 µM (inactive)", "> 100 µM (inactive)", "> 100 µM (inactive)", "> 100 µM (inactive)", "> 100 µM (inactive)", "24.7 µM (inactive)"]

----------
# Tested on: NCI-H522
# protocol description: NCI tumour cell line growth inhibition, 48 h
Activity calls are given as the source filed them. Cut-off read from the data, not from the text of the source: active = GI50 up to about 1.1 µM and inactive = higher. Peptide text beside a SMILES is read from it. * marks the point of attachment. Fmoc = O=C(OCC1c2ccccc2-c2ccccc21)*; Boc = CC(C)(C)OC(=O)*; OtBu = CC(C)(C)O*
readout: GI50

Example entries begin here.
molecule: CN(C)Cc1cc(C(=O)/C=C/c2ccc(Cl)cc2Cl)cc(CN(C)C)c1O
measured target: NCI-H522
val: 2.56 µM (inactive)
//
molecule: CCc1cccc(C)c1NC(=O)CC1C(=O)Nc2ccccc2S1(=O)=O (stereo not drawn)
measured target: NCI-H522
val: 15.8 µM (inactive)
//
molecule: C=C1C(=O)O[C@H]2C/C(C=O)=C\[C@H]3O[C@H]3/C(COC(=O)C(C)C)=C/CC12 (stereo partly drawn)
measured target: NCI-H522
val: 3.39 µM (inactive)
//
molecule: CC(C)(C)OC(=O)CCC(NC(=O)OCC1c2ccccc2-c2ccccc21)C(=O)NC(Cc1c[nH]c2ccccc12)C(=O)NC(CCCCNC(=O)OC(C)(C)C)C(=O)N1CCCC1C(=O)NCC(N)=O (stereo not drawn) (Fmoc-E(OtBu)WK(Boc)PG-NH2; configuration not given here)
measured target: NCI-H522
val: 1.62 µM (inactive)
//
molecule: OC(c1ccccc1Br)(c1ccccc1Br)C(F)(F)F
measured target: NCI-H522
val: 11.6 µM (inactive)

Dear colleague, could you send me GI50 for each of the items below? Thanks.
1. CC(=O)C1C(=O)C(=O)N(c2ccc([N+](=O)[O-])cc2)C1=O (stereo not drawn)
2. Nc1ccc(C(=O)N/C(=C\c2ccc3c(c2)OCO3)c2nc3c(O)nc(S)nc3[nH]2)cc1
3. COc1ccc2ccccc2c1/C=C/C(=O)c1ccccc1

Response:
1: > 100 µM (inactive); 2: > 100 µM (inactive); 3: 2.46 µM (inactive)
